MEASURED TARGET: hROMK (hKir1.1) (Homo sapiens (Human))
Sequence (P48048 whole entry): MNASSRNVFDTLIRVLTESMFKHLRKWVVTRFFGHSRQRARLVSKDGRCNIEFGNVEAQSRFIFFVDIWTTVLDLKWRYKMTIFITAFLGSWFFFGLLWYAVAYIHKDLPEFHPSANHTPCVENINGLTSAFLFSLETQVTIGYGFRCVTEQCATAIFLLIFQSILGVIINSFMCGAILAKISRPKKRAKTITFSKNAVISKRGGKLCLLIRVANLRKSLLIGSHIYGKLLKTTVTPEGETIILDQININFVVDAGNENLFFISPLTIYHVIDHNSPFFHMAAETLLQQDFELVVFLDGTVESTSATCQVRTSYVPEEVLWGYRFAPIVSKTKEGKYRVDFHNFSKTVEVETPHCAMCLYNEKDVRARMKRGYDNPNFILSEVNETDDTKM
ASSAY NOTES: Thallium Flux Assay
Type: cell-based
CONDITION PARAMETERS: HEK293 cells stably expressing hROMK (hKir1.1), FLIPR-Tetra; read-out: Thallium Flux IC50
ASSAY METRIC: IC50 (nM)
Provide only the numeric value, understood in nM.

# IC50 of N#Cc1cc([C@@H]2CN3CCN(C(=O)Cc4cnc(-n5cnnn5)nc4)C[C@H]3CO2)ccc1F [Example 142] = 100
